target: isolated recombinant JAK1 kinase domain (Homo sapiens (Human), UniProt P23458); assay: JAK1 enzyme assay (Caliper LabChip, Ki); type: biochemical; conditions: isolated recombinant JAK1 kinase domain, 1.5 nM enzyme, ATP 25 μM
Sequence (P23458 875-1153): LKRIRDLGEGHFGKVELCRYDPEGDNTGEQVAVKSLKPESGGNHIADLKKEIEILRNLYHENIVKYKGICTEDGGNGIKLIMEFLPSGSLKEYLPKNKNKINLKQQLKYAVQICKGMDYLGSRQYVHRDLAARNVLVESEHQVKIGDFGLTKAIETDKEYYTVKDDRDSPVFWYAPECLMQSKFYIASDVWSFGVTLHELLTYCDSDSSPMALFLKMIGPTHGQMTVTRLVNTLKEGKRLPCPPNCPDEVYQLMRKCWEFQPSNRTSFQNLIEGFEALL
observation-type: log10 of Ki (log10 of the value in pM)
Please note: log10 values; quantity Ki; unit pM.

Please review the following examples before continuing.
CN1CCN(C(=O)Cn2cc(Nc3nc4c(N5CC6CCC(C5)N6S(=O)(=O)C5CCCCC5)cccn4n3)cn2)CC1 [Example 178] :: 3.26
CN1CCN(C(=O)Cn2cc(Nc3nc4c(N5CC6CCC(C5)N6C(=O)C5C6CC(F)(F)CC65)cccn4n3)cn2)CC1 (centres unmarked) [Example 49] :: 3.18
CSCCN1CCN(C(=O)Cn2cc(Nc3nc4c(N5CC6CCC(C5)N6C(=O)N5CC(C(F)(F)F)C5)cccn4n3)cn2)CC1 [Example 186] :: 2.30

Would you kindly share the measured log10 of Ki for CN1CCN(C(=O)Cn2cc(Nc3nc4c(N5C[C@H]6CC[C@@H](C5)[C@H]6OCc5cccnc5)cccn4n3)cn2)CC1 [Example 84] ?
2.60

What value of measured log10 of Ki is listed for CC(CC(=O)N1C2CCC1CN(c1cccn3nc(Nc4cnn(CC(=O)N5CCN(C)CC5)c4)nc13)C2)C(F)(F)F (centres unmarked) [Example 67] ?
2.90

Record request: log10 of Ki value, item COC1(C(F)(F)F)CN(C(=O)N2C3CCC2CN(c2cccn4nc(Nc5cnn(CC(=O)N6CCN(C)CC6)c5)nc24)C3)C1 [Example 146]
3.79

Suppose we examine the compound CN1CCN(C(=O)Cn2cc(Nc3nc4c(N5CC6CCC(C5)N6C(=O)Cc5ccc(F)cc5)cccn4n3)cn2)CC1 [Example 66] ; what log10 of Ki value has been reported?
2.85

// returns reported log10 of Ki for input CN1CCN(C(=O)Cn2cc(Nc3nc4c(N5CC6CCC(C5)N6C(=O)c5ccccc5C#N)cccn4n3)cn2)CC1 [Example 140]
2.60

Bench note: what log10 of Ki did Cc1ncc(S(=O)(=O)N2C3CCC2CN(c2cccn4nc(Nc5cnn(CC(=O)N6CCN(C)CC6)c5)nc24)C3)s1 [Example 138] show?
2.85

Reported log10 of Ki for CN1CCN(C(=O)Cn2cc(Nc3nc4c(C5=CC6CCC(C5)N6C(=O)CCC(F)(F)F)cccn4n3)cn2)CC1 (centres unmarked) [Example 18] : what is it?
3.18

Quick one: log10 of Ki for CN1CCN(C(=O)Cn2cc(Nc3nc4c(N5CC6CCC(C5)N6Cc5ccc(C#N)cc5)cccn4n3)cn2)CC1 [Example 56] ?
3.15

Given the entry CSCCN1CCN(C(=O)Cn2cc(Nc3nc4c(N5CC6CCC(C5)N6C(=O)C5CC(C(F)(F)F)C5)cccn4n3)cn2)CC1 (centres unmarked) [Example 198] , report its measured log10 of Ki.
2.90

Name the reported log10 of Ki value associated with the compound CN1CCN(C(=O)Cn2cc(Nc3nc4c(N5CC6CCC(C5)N6S(=O)(=O)Cc5ccc(F)cc5)cccn4n3)cn2)CC1 [Example 160]
2.78

Given the entry N#CC1(CNC2CCN(C(=O)Cn3cc(Nc4nc5c(N6CC7CCC(C6)N7C(=O)C6CC(C(F)(F)F)C6)cccn5n4)cn3)CC2)CC1 (centres unmarked) [Example 191] , report its measured log10 of Ki.
3.54
